Measured MIC of individual entries
System: Acinetobacter pittii
TEST: Antibacterial activity against Acinetobacter genomosp. 3 isolate 195 by Etest method
Type: functional
I only need the number, in µg/mL, no unit after it.

Completed entries (count: 3):
SMILES DATA | EXPERIMENTAL READOUT | DISPLAY UNIT | TEST VALUE
CCN1CCN(C(=O)N[C@@H](C(=O)N[C@@H]2C(=O)N3[C@@H]2SC(C)(C)[C@@H]3C(=O)O)c2ccccc2)C(=O)C1=O | MIC | µg/mL | 24
CC(C)(O/N=C(\C(=O)N[C@@H]1C(=O)N2C(C(=O)[O-])=C(C[n+]3ccccc3)CS[C@H]12)c1csc(N)n1)C(=O)O | MIC | µg/mL | 4
CO/N=C(\C(=O)N[C@@H]1C(=O)N2C(C(=O)O)=C(COC(C)=O)CS[C@H]12)c1csc(N)n1 | MIC | µg/mL | 24

In the following, a different compound is considered.
MIC reported for this compound C[C@@H](O)[C@H]1C(=O)N2C(C(=O)O)=C(S[C@@H]3CN[C@H](C(=O)N(C)C)C3)[C@H](C)[C@H]12 : 1
